Sourced from patent EP0851862B1

target: α2
test: receptor binding profile, α2
condition_notes: read-out: α2 Affinity is expressed as IC50
Structures can show the parent of a compound that is named as a salt.
The entries below come with measured IC50 values attached.

{"columns": ["compound", "IC50 (µM)"],
 "data": [
  ["c1ccc(N2CCN(CCCc3nc4c(s3)CCc3ccccc3-4)CC2)cc1", 0.11],
  ["COc1ccc2c(c1)CCc1sc(CCCN3CCN(c4ccccc4OC)CC3)nc1-2 [(6), hydrochloride]", 0.16],
  ["c1ccc(N2CCN(CCCCc3nc4c(s3)CCc3ccccc3-4)CC2)cc1", 0.26],
  ["c1ccc(N2CCN(CCc3nc4c(s3)CCc3ccccc3-4)CC2)cc1", 0.16],
  ["c1ccc(N2CCN(Cc3nc4c(s3)CCc3ccccc3-4)CC2)cc1", 0.3]
]}
